- measured_on: T1, linked peptide (HIV-1, strain  (synthetic …))
- T1 construct: source: synthetic peptide (Genscript)
- assay_notes: BLI; Octet Red; Mabs captured on anti-human IgG Fc biosensors (10 µg/mL), peptides or ES2 as analyte in solution, two-fold dilutions 500 nM to 7.81 nM, PBS pH 7.4, 0.2% Tween 20, 60 s association and 60 s dissociation, no lipid; Langmuir 1:1 fit; also used for the alanine-substituted MPER peptides
- particulars: both partners purified
pKd: −log10 of the molar value.
observed_property: pKd

binder="2F5 CDRH3 length-altered variant e4 (antibody, V domains shown) VH: RITLKESGPPLVKPTQTLTLTCSFSGFSLSDFGVGVGWIRQPPGKALEWLAIIYSDDDKRYSPSLNTRLTITKDTSKNQVVLVMTRVSPVDTATYFCAHRRGPTTGGLFGVGGPIARGPVNAMDVWGQGITVTISS VL: ALQLTQSPSSLSASVGDRITITCRASQGVTSALAWYRQKPGSPPQLLIYDASSLESGVPSRFSGSGSGTEFTLTISTLRPEDFATYYCQQLHFYPHTFGGGTRVDVR" value_observed=7.10
binder="2F5 CDRH3 length-altered variant r2 (antibody, V domains shown) VH: RITLKESGPPLVKPTQTLTLTCSFSGFSLSDFGVGVGWIRQPPGKALEWLAIIYSDDDKRYSPSLNTRLTITKDTSKNQVVLVMTRVSPVDTATYFCAHRRGPTLFGVIARGPVNAMDVWGQGITVTISS VL: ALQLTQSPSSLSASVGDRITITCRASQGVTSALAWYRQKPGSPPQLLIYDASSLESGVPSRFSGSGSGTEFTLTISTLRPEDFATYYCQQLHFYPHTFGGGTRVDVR" value_observed=7.25
binder="2F5 CDRH3 length-altered variant r4 (antibody, V domains shown) VH: RITLKESGPPLVKPTQTLTLTCSFSGFSLSDFGVGVGWIRQPPGKALEWLAIIYSDDDKRYSPSLNTRLTITKDTSKNQVVLVMTRVSPVDTATYFCAHRRGPLFGVARGPVNAMDVWGQGITVTISS VL: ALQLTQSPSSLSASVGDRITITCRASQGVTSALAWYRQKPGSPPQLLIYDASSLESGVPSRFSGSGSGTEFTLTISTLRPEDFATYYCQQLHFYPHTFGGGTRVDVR" value_observed=7.01
binder="2F5 CDRH3 length-altered variant r6 (antibody, V domains shown) VH: RITLKESGPPLVKPTQTLTLTCSFSGFSLSDFGVGVGWIRQPPGKALEWLAIIYSDDDKRYSPSLNTRLTITKDTSKNQVVLVMTRVSPVDTATYFCAHRRGLFGVRGPVNAMDVWGQGITVTISS VL: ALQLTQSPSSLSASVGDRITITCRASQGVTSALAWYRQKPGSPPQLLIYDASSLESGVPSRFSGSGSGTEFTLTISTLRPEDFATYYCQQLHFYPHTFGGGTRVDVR" value_observed=6.90
binder="2F5 CDRH3 length-altered variant e2 (antibody, V domains shown) VH: RITLKESGPPLVKPTQTLTLTCSFSGFSLSDFGVGVGWIRQPPGKALEWLAIIYSDDDKRYSPSLNTRLTITKDTSKNQVVLVMTRVSPVDTATYFCAHRRGPTTGLFGVGPIARGPVNAMDVWGQGITVTISS VL: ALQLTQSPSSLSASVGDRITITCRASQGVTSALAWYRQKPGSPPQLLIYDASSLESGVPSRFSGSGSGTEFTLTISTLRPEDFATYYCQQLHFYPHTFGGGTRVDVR" value_observed=7.57

Source of measurements: paper PMC3400562
